# Assayed target: GST-Dm-Relish (Drosophila melanogaster, UniProt Q94527 99-473)
# Sequence: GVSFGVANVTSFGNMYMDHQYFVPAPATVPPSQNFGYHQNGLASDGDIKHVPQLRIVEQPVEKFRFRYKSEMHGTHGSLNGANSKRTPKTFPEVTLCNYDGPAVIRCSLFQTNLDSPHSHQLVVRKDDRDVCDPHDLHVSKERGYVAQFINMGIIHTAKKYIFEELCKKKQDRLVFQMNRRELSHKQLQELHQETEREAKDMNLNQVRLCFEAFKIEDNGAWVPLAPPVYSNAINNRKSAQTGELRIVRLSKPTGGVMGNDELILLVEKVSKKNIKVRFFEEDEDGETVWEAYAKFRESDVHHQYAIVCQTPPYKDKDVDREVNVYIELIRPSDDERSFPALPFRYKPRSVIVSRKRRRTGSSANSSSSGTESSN
# Experimental protocol: protein-binding microarray (PBM); PBM: ~300 nM protein, 6 mM HEPES pH 7.8, 80 mM KCl, 0.5 mM EDTA, 0.5 mM EGTA, 6% glycerol, 35 ng/ul poly-dIdC, 1% milk, 1 h, room temperature; high values mean tight binding
# Experimental setup: dsDNA, one strand shown
Param label: returns T when binding signal < 5 z-score, returns F otherwise, including exact equality.

// below: answered sequences
CCGATTAACATCAATGGGAATTCTGATGTTAATCGGGTCTTGATTCGCTTGACGCTGCTG	T
CCGATTAACATCAATCACCCCCATGATGTTAATCGGGTCTTGATTCGCTTGACGCTGCTG	T
CCGATTAACATCAGATAATTCCCTGATGTTAATCGGGTCTTGATTCGCTTGACGCTGCTG	T
CCGATTAACATCAAGAAATTCCCTGATGTTAATCGGGTCTTGATTCGCTTGACGCTGCTG	F
CCGATTAACATCAACATCCCCCCTGATGTTAATCGGGTCTTGATTCGCTTGACGCTGCTG	F
CCGATTAACATCAAGGATTTCCCTGATGTTAATCGGGTCTTGATTCGCTTGACGCTGCTG	F
CCGATTAACATCAGGATCTTCCCTGATGTTAATCGGGTCTTGATTCGCTTGACGCTGCTG	T
CCGATTAACATCACTTTTTCCCATGATGTTAATCGGGTCTTGATTCGCTTGACGCTGCTG	T

Moving on to the next sequence.
Query :: Is binding signal of `CCGATTAACATCAGGGGGGGGAATGATGTTAATCGGGTCTTGATTCGCTTGACGCTGCTG` strictly below 5 z-score?
Result :: F

###

Please respond with reported binding signal for every item in the list.
# Assayed target: GST-Hu-p50 (Homo sapiens, UniProt P19838 7-356)
# Sequence (P19838 7-356): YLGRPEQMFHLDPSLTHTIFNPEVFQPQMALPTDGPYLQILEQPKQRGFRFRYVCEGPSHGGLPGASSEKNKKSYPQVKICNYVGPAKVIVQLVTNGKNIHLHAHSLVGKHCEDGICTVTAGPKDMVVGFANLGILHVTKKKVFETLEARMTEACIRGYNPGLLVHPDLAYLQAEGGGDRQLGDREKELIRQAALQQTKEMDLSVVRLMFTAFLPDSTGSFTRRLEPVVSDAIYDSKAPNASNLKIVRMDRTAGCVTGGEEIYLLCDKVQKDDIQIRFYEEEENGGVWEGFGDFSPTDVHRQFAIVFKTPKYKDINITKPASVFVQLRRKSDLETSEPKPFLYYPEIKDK
# Experimental protocol: protein-binding microarray (PBM); PBM: ~300 nM protein, 6 mM HEPES pH 7.8, 80 mM KCl, 0.5 mM EDTA, 0.5 mM EGTA, 6% glycerol, 35 ng/ul poly-dIdC, 1% milk, 1 h, room temperature; Ap Aiptasia and Nv Nematostella (sea anemones) / Co Capsaspora / Aq Amphimedon (sponge) / Dm Drosophila / Hu human; RHD is the Rel homology domain; high values mean tight binding
# Experimental setup: dsDNA, one strand shown
One number for each entry, in z-score.

The cases that follow already have their binding signal on record.
CCGATTAACATCAGGGGAACACCTGATGTTAATCGGGTCTTGATTCGCTTGACGCTGCTG	4.87
CCGATTAACATCACGGGTATTCCTGATGTTAATCGGGTCTTGATTCGCTTGACGCTGCTG	3.53
CCGATTAACATCACAGTTCCCCCTGATGTTAATCGGGTCTTGATTCGCTTGACGCTGCTG	5.66
CCGATTAACATCAGACAACCCCCTGATGTTAATCGGGTCTTGATTCGCTTGACGCTGCTG	5.28

Return reported binding signal values for all items listed beneath this line.
1. CCGATTAACATCAGGGGAAAGACTGATGTTAATCGGGTCTTGATTCGCTTGACGCTGCTG
2. CCGATTAACATCAGGGACATACCTGATGTTAATCGGGTCTTGATTCGCTTGACGCTGCTG
3. CCGATTAACATCAGGGACTCCCCTGATGTTAATCGGGTCTTGATTCGCTTGACGCTGCTG
4. CCGATTAACATCAGGGGGAGAAATGATGTTAATCGGGTCTTGATTCGCTTGACGCTGCTG
5. CCGATTAACATCAGGGGGTTCACTGATGTTAATCGGGTCTTGATTCGCTTGACGCTGCTG
6. CCGATTAACATCAGGGGGATACCTGATGTTAATCGGGTCTTGATTCGCTTGACGCTGCTG
7. CCGATTAACATCAGTATTTCCCATGATGTTAATCGGGTCTTGATTCGCTTGACGCTGCTG

Result ::
[4.9, 2.14, 6.03, 6.45, 5.34, 5.56, 2.64]

Return reported binding signal values for all items listed beneath this line.
1. CCGATTAACATCAATTTTTCCCGTGATGTTAATCGGGTCTTGATTCGCTTGACGCTGCTG
2. CCGATTAACATCACATGGGAATCTGATGTTAATCGGGTCTTGATTCGCTTGACGCTGCTG

Result ::
1: 3.66; 2: 1.59

Return reported binding signal values for all items listed beneath this line.
1. CCGATTAACATCAGGAAACTCCCTGATGTTAATCGGGTCTTGATTCGCTTGACGCTGCTG
2. CCGATTAACATCAAGGGGGTTTCTGATGTTAATCGGGTCTTGATTCGCTTGACGCTGCTG
3. CCGATTAACATCAGGGGGGTGAATGATGTTAATCGGGTCTTGATTCGCTTGACGCTGCTG
4. CCGATTAACATCATTCCCGGGAATGATGTTAATCGGGTCTTGATTCGCTTGACGCTGCTG

Result ::
1: 5.86; 2: 7.39; 3: 4.12; 4: 2.31

Query :: Provide the documented binding signal with GST-Hu-p50 (Homo sapiens, UniProt P19838 7-356) as the system for `CCGATTAACATCAAGGGGGTACCTGATGTTAATCGGGTCTTGATTCGCTTGACGCTGCTG`
Result :: 3.89

Value source: paper PMC5700166
